Test: Biodistribution, CHO-K1-GRPR + CHO-K1-PSMA dual xenograft mice
Conditions: female, NOD SCID, mouse, pancreas, intravenous, 1.08 nmol, total radioactivity, Biodistribution: Pancreas, Mouse #6; single tracer; dual xenograft; 25.2 h p.i.; 1.08 nmol
propertyMeasured: tissue uptake at 25.2 h (%ID/g)
Value expressed in %ID/g; do not type the unit.

In: Entry CC(C)C[C@H](NC(=O)C[C@H](O)[C@H](CC(C)C)NC(=O)[C@H](Cc1c[nH]cn1)NC(=O)CNC(=O)[C@@H](NC(=O)[C@H](C)NC(=O)[C@H](Cc1c[nH]c2ccccc12)NC(=O)[C@H](CCC(N)=O)NC(=O)[C@@H](Cc1ccccc1)NC(=O)CN1CCC(NC(=O)CN2CCN(CC(=O)O)CCN(CC(=O)O)CCN(CC(=O)O)CC2)CC1)C(C)C)C(N)=O [[^111In]In-RM2, metal not drawn] : reported tissue uptake at 25.2 h = ?
Out: 0.06

---

Assay: Biodistribution, PC-3 xenograft mice
Format: in vivo, NOD SCID mice
Conditions: female, NOD SCID, stomach (empty), intravenous, total radioactivity; Mouse #2; single tracer; PC-3 xenograft; 7.3 h p.i.; 1.43 nmol; read-out: Biodistribution: Stomach (empty)
propertyMeasured: tissue uptake at 7.3 h (%ID/g)
Value expressed in %ID/g; do not type the unit.

In: Entry CC(C)C[C@H](NC(=O)C[C@H](O)[C@H](CC(C)C)NC(=O)[C@H](Cc1c[nH]cn1)NC(=O)CNC(=O)[C@@H](NC(=O)[C@H](C)NC(=O)[C@H](Cc1c[nH]c2ccccc12)NC(=O)[C@H](CCC(N)=O)NC(=O)[C@@H](Cc1ccccc1)NC(=O)CN1CCC(NC(=O)CN2CCN(CC(=O)O)CCN(CC(=O)O)CCN(CC(=O)O)CC2)CC1)C(C)C)C(N)=O [[^111In]In-RM2, metal not drawn] : reported tissue uptake at 7.3 h = ?
Out: 0.02

---

Experiment: Biodistribution, CHO-K1-GRPR + CHO-K1-PSMA dual xenograft mice
Conditions: female, NOD SCID, mouse, muscle, intravenous, 2.69 nmol, total radioactivity, Biodistribution: Muscle, Mouse #9; dual tracer; dual xenograft; 17.6 h p.i.; 2.69 nmol
propertyMeasured: tissue uptake at 17.6 h (%ID/g)
Value expressed in %ID/g; do not type the unit.

In: Entry CC(C)C[C@H](NC(=O)C[C@H](O)[C@H](CC(C)C)NC(=O)[C@H](Cc1c[nH]cn1)NC(=O)CNC(=O)[C@@H](NC(=O)[C@H](C)NC(=O)[C@H](Cc1c[nH]c2ccccc12)NC(=O)[C@H](CCC(N)=O)NC(=O)[C@@H](Cc1ccccc1)NC(=O)CN1CCC(NC(=O)CN2CCN(CC(=O)O)CCN(CC(=O)O)CCN(CC(=O)O)CC2)CC1)C(C)C)C(N)=O [[^111In]In-RM2, metal not drawn] : reported tissue uptake at 17.6 h = ?
Out: 0.01

---

Assay: Biodistribution, CHO-K1-GRPR + CHO-K1-PSMA dual xenograft mice
Settings: female, NOD SCID, mouse, spleen, intravenous, 0.37 nmol, total radioactivity, Biodistribution: Spleen, Mouse #5; single tracer; dual xenograft; 24.2 h p.i.; 0.37 nmol
propertyMeasured: tissue uptake at 24.2 h (%ID/g)
Value expressed in %ID/g; do not type the unit.

In: Entry CC(C)C[C@H](NC(=O)C[C@H](O)[C@H](CC(C)C)NC(=O)[C@H](Cc1c[nH]cn1)NC(=O)CNC(=O)[C@@H](NC(=O)[C@H](C)NC(=O)[C@H](Cc1c[nH]c2ccccc12)NC(=O)[C@H](CCC(N)=O)NC(=O)[C@@H](Cc1ccccc1)NC(=O)CN1CCC(NC(=O)CN2CCN(CC(=O)O)CCN(CC(=O)O)CCN(CC(=O)O)CC2)CC1)C(C)C)C(N)=O [[^111In]In-RM2, metal not drawn] : reported tissue uptake at 24.2 h = ?
Out: 0.08
